Some binders, each annotated with its measured MF (mean fluorescence).
target-or-test-system: HLA-A2.1 molecules expressed by 174CEM.T2 cells (human)
experiment-notes: T2 HLA-A2.1 stabilisation, flow cytometry (BB7.2), peptide 200 ug/ml
condition-notes: remark: other sources report otherwise
API doc: respond with a numeric literal and nothing else, no unit.

Previously resolved entries follow.
- binder: "CVYCKQQLL (modifications not checked) [… (residues 37-45 of HPV16 protein E6)]"
  MF (mean fluorescence): 195
- binder: "EITCVYCKT (modifications not checked) [… (residues 29-37 of HPV18 protein E6)]"
  MF (mean fluorescence): 206

Exercise: Report MF (mean fluorescence) for ELTEVFEFA (modifications not checked) [… (residues 40-48 of HPV18 protein E6)] please.
Key: 289

Exercise: Report MF (mean fluorescence) for QLCTELQTT (modifications not checked) [… (residues 21-29 of HPV16 protein E6)] please.
Key: 212

Exercise: Report MF (mean fluorescence) for KLPDLCTEL (modifications not checked) [… (residues 13-21 of HPV18 protein E6)] please.
Key: 439

Cited source for all entries: patent US7364741
